tested on: HeLa Kyoto; experiment: solubility change mitosis vs G1/S (difference of NP-40 vs SDS log2 ratios) (log2 ratio difference); higher = more soluble in mitosis;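 further: synchronized HeLa Kyoto cells (double thymidine block for G1/S, nocodazole release for mitosis), protein amounts in NP-40 versus SDS lysates quantified by mass spectrometry, three biological replicates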
ENDPOINT: solubility change mitosis (log2)
Numbers only.

# annotated cases, reported solubility change mitosis (log2) shown
[[record]]
sequence_text = "MEVTGVSAPTVTVFISSSLNTFRSEKRYSRSLTIAEFKCKLELLVGSPASCMELELYGVDDKFYSKLDQEDALLGSYPVDDGCRIHVIDHSGARLGEYEDVSRVEKYTISQEAYDQRQDTVRSFLKRSKLGRYNEEERAQQEAEAAQRLAEEKAQASSIPVGSRCEVRAAGQSPRRGTVMYVGLTDFKPGYWIGVRYDEPLGKNDGSVNGKRYFECQAKYGAFVKPAVVTVGDFPEEDYGLDEI [TBCB]"
recorded_value = 0.119

[[record]]
sequence_text = "MAKAGDKSSSSGKKSLKRKAAAEELQEAAGAGDGATENGVQPPKAAAFPPGFSISEIKNKQRRHLMFTRWKQQQRKEKLAAKKKLKKEREALGDKAPPKPVPKTIDNQRVYDETTVDPNDEEVAYDEATDEFASYFNKQTSPKILITTSDRPHGRTVRLCEQLSTVIPNSHVYYRRGLALKKIIPQCIARDFTDLIVINEDRKTPNGLILSHLPNGPTAHFKMSSVRLRKEIKRRGKDPTEHIPEIILNNFTTRLGHSIGRMFASLFPHNPQFIGRQVATFHNQRDYIFFRFHRYIFRSEKKVGIQELGPRFTLKLRSLQKGTFDSKYGEYEWVHKPREMDTSRRKFHL [RPF1]"
recorded_value = 0.774


Turning now to a further sequence:
Provide solubility change mitosis (log2) value for the following sequence: MLRREARLRREYLYRKAREEAQRSAQERKERLRRALEENRLIPTELRREALALQGSLEFDDAGGEGVTSHVDDEYRWAGVEDPKVMITTSRDPSSRLKMFAKELKLVFPGAQRMNRGRHEVGALVRACKANGVTDLLVVHEHRGTPVGLIVSHLPFGPTAYFTLCNVVMRHDIPDLGTMSEAKPHLITHGFSSRLGKRVSDILRYLFPVPKDDSHRVITFANQDDYISFRHHVYKKTDHRNVELTEVGPRFELKLYMIRLGTLEQEATADVEWRWHPYTNTARKRVFLSTE [IMP4] 0.914

The reported measurements were obtained from the supplement of paper PMC5998384.
